Where do these numbers come from? They come from paper PMC12263876.

Molecular target: DDX39B (Homo sapiens, UniProt Q13838)
Construct: His-DDX39B
Sequence (Q13838 2-428): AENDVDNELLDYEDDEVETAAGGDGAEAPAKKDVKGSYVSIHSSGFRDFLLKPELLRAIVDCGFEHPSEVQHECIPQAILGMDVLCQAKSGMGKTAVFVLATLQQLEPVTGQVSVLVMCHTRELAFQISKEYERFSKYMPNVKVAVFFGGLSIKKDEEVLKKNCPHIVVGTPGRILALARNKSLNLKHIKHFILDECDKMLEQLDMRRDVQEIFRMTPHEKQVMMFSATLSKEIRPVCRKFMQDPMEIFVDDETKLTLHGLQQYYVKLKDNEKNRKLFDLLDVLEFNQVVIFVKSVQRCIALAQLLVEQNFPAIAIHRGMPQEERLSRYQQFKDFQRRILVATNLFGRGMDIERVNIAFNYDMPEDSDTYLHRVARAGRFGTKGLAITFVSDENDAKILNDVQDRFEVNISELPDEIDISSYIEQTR
Assay: SPR (KD […]); also BLI with biotinylated His-DDX39B (KD […]) and CETSA in NSCLC cells
Property Label: Kd (µM)
Give just the numeric value; µM need not be written.

Returns the measured Kd for the input compound. Input: C[C@H]1[C@H](OC(=O)CCC(=O)O)O[C@@H]2O[C@@]3(C)CC[C@H]4[C@H](C)CC[C@@H]1[C@@]24OO3 [artesunate]
3.23
